Kindly supply the reported pIC50 values for the records listed here.
System: HT
Test: Cytotoxicity against human HT cells after 48 hrs by luminometric analysis
Format: functional, cell-based
// pIC50: -log10(molar conc.)

The measured pIC50 associated with CC(=O)OC[C@]12Oc3c(-c4ccc5c(c4O)C(=O)C4=C(O)C[C@@H](C)[C@@H](OC(C)=O)[C@@]4(CO)O5)ccc(O)c3C(=O)C1=C(O)C[C@@H](C)[C@H]2OC(C)=O (relative stereo) reads 4.97

The measured pIC50 associated with CC(=O)OC[C@]12Oc3cccc(O)c3C(=O)C1=C(O)C[C@@H](C)[C@H]2OC(C)=O (relative stereo) reads 4.00

The measured pIC50 associated with CC(=O)OC[C@]12Oc3ccc(-c4ccc5c(c4O)C(=O)C4=C(O)C[C@@H](C)[C@@H](OC(C)=O)[C@@]4(COC(C)=O)O5)c(O)c3C(=O)C1=C(O)C[C@@H](C)[C@H]2OC(C)=O [DICERANDROL C] reads 5.68

The measured pIC50 associated with CC(=O)OC[C@]12Oc3ccc(-c4ccc5c(c4O)C(=O)C4=C(O)C[C@@H](C)[C@@H](OC(C)=O)[C@@]4(CO)O5)c(O)c3C(=O)C1=C(O)C[C@@H](C)[C@H]2OC(C)=O [DICERANDROL B] reads 5.92
